Provenance of the data: patent US20250109209A1

Provide the recorded pKd for the entries that follow.
# study_target: T1, Cyno TL1A (cyno, UniProt G7PRK8 72-251)
# T1 sequence: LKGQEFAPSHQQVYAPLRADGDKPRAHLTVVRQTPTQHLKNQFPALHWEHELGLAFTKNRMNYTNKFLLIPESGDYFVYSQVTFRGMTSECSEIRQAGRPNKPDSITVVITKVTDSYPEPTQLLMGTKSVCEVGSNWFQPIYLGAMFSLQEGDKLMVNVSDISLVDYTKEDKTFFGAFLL
# assay_details: SPR, Fab format, average
Numbers only, as −log10 of the molar value.

Would you please look over these solved cases?
{"binder": "Antibody 18 (Fab format) (Fab, V domains shown, High priority lead, Fab format) VH: QVQLQESGPGLVRPSQTLSLTCTVSGFDMGDTYMHWVRQRPGRGLEWMGRIEPAGGHTKYNPSLKSRVTITRDTSKNQVSLRLSSVTAADTAVYYCVRSGGMPDVWGQGSLVTVSS VL: DIQMTQSPSSLSASVGDRVTITCRASSSVSYMYWYQQKPGKAPKLLIYYASNLASGVPSRFSGSGSGTDFTFTISSLQPEDIATYYCQQWEGNPRTFGQGTKVEIK", "reported_measurement": 8.89}
{"binder": "Antibody 16 (Fab format) (Fab, V domains shown, High priority lead, Fab format) VH: QVQLQESGPGLVRPSQTLSLTCTVSGFDMQSTYMHWVRQRPGRGLEWMGRIEPAGGHTKYNPSLKSRVTITRDTSKNQVSLRLSSVTAADTAVYYCVRSGGLPDVWGQGSLVTVSS VL: DIQMTQSPSSLSASVGDRVTITCRASQGVEYMYWYQQKPGKAPKLLIYGASNLASGVPSRFSGSGSGTDFTFTISSLQPEDIATYYCQQWEGNPRTFGQGTKVEIK", "reported_measurement": 9.49}
{"binder": "Antibody 15 (Fab format) (Fab, V domains shown, High priority lead, Fab format) VH: QVQLQESGPGLVRPSQTLSLTCTVSGFDIQDTYMHWVRQRPGRGLEWMGRIEPAGGHTKYNPSLKSRVTITRDTSKNQVSLRLSSVTAADTAVYYCVRSGGLPDAWGQGSLVTVSS VL: DIQMTQSPSSLSASVGDRVTITCRASQGIYYMYWYQQKPGKAPKLLIYGASNLASGVPSRFSGSGSGTDFTFTISSLQPEDIATYYCQQWEGNPRTFGQGTKVEIK", "reported_measurement": 8.74}

Need pKd for each of these binders.
1. Antibody 5 (Fab format) (Fab, V domains shown, High priority lead, Fab format) VH: QVQLQESGPGLVRPSQTLSLTCTVSGFDMQDTYMHWVRQRPGRGLEWMGRIEPASGHTKYNPSLKSRVTITRDTSKNQVSLRLSSVTAADTAVYYCVRSGGLPDVWGQGSLVTVSS VL: DIQMTQSPSSLSASVGDRVTITCRASQGVMYMYWYQQKPGKAPKLLIYGASNLASGVPSRFSGSGSGTDFTFTISSLQPEDIATYYCQQWEGNPRTFGQGTKVEIK
2. Antibody 20 (Fab format) (Fab, V domains shown, High priority lead, Fab format) VH: QVQLQESGPGLVRPSQTLSLTCTVSGFDIQDTYMHWVRQRPGRGLEWMGRIEPASGHTKYNPSLKSRVTITRDTSKNQVSLRLSSVTAADTAVYYCARSGGMPDMWGQGSLVTVSS VL: DIQMTQSPSSLSASVGDRVTITCRASQGVMYMYWYQQKPGKAPKLLIYGASNLASGVPSRFSGSGSGTDFTFTISSLQPEDIATYYCQQWEGNPRTFGQGTKVEIK

1: 9.10; 2: 8.89
